This collection of values is drawn from PubChem BioAssay (NCI).

Entries with their measured GI50, system MDA-MB-435:

Observe how each entry below is paired with its result.
# Molecule, Outcome Measure, Result
data = [
    ("O=C(CN(/C=C/C(=O)C(F)(F)F)c1ccc(Cl)cc1)c1ccc(Cl)c(Cl)c1", "GI50", "4030 nM"),
    ("CC(C)N(Cc1ccc(CN(C(=O)CCl)C(C)C)cc1)C(=O)CCl", "GI50", "1700 nM"),
    ("[N-]=[N+]=NCCCn1c2c(c3ccc([N+](=O)[O-])cc3c1=O)C(=O)c1cc(Br)ccc1-2", "GI50", "> 100000 nM"),
    ("CC(=O)OC12C=C(C)C(C(C)C1)C1C(=O)N(CCN3CCCCC3)C(=O)C12 (centres undefined)", "GI50", "> 50000 nM"),
    ("Cc1cc(C)c(C#N)c(Sc2nc(C)c([N+](=O)[O-])c(C)c2C#N)n1", "GI50", "2100 nM"),
]

Qu. Given O=C(NNc1ccc(Cl)cc1)C1CCC(CNS(=O)(=O)c2ccccc2Cl)CC1 (centres undefined) , state its recorded GI50.
Ans. 4770 nM

Qu. Same again, this time with `NC(=O)c1ccc(Oc2nccc(-c3c(-c4ccc(F)cc4)ncn3C3CCNCC3)n2)cc1`
Ans. > 25000 nM

Qu. Same again, this time with `O=C(NCC(F)(F)F)Nc1cccc(-c2cnc3cc(-c4ccc(F)cc4)ccn23)c1`
Ans. 216 nM

Qu. Same again, this time with COc1ccccc1S(=O)(=O)Nc1ccc2c3c(cc(CCC(=O)NCCCCNc4cccc5c4C(=O)N(C4CCC(=O)NC4=O)C5=O)cc13)C(=O)N2C (centres undefined)
Ans. 726 nM
